- EXPERIMENTAL_PROTOCOL: Intrinsic clearance in mouse liver microsomes assessed per mg of protein
- Assay type: ADME, Microsome
REPORTED_ENDPOINT: clearance (µL/min/mg)
Answer format: numeric, µL/min/mg implied, no suffix.

-- ask What value of measured clearance is listed for O=c1[nH]ccc2cc(O[C@H]3CCCNC3)ccc12 ?
-- reply 17

----------
- EXPERIMENTAL_PROTOCOL: Half life in C57 mouse
- Assay type: ADME, organism-based
- TEST_CONTEXT: in vivo
REPORTED_ENDPOINT: half-life (min)
Answer format: numeric, min implied, no suffix.

-- ask What value of measured half-life is listed for Nc1nccc2c(S(=O)(=O)N3CCCNCC3)cccc12 ?
-- reply 45

----------
- Test system: Hepatocyte
- EXPERIMENTAL_PROTOCOL: Intrinsic clearance in rat hepatocytes assessed per 1 x 10^6 cells
- Format: ADME, cell-based, Liver
REPORTED_ENDPOINT: clearance (µL/min/1e6 cells)
Answer format: numeric, µL/min/1e6 cells implied, no suffix.

-- ask What value of measured clearance is listed for c1ccc(CN2CCC[C@H](Oc3ccc4cnccc4c3)C2)cc1 ?
-- reply 21

----------
- System: Liver microsomes
- EXPERIMENTAL_PROTOCOL: Intrinsic clearance in human liver microsomes assessed per mg of protein
- Assay type: ADME, Microsome
REPORTED_ENDPOINT: clearance

-- ask Entry O=c1[nH]ccc2cc(O[C@H]3CCCNC3)ccc12 , system Liver microsomes: what clearance was measured?
-- reply < 12 µL/min/mg

----------
- EXPERIMENTAL_PROTOCOL: Apparent permeability from apical to basolateral side of human Caco2 cells
- Assay type: ADME, cell-based
- TEST_CONTEXT: Caco-2, read-out: permeability
REPORTED_ENDPOINT: Papp A→B (×10⁻⁶ cm/s)
Answer format: numeric, ×10⁻⁶ cm/s implied, no suffix.

-- ask What value of measured Papp A→B is listed for O=c1[nH]ccc2cc(O[C@H]3CCCNC3)ccc12 ?
-- reply 14.3

Others:
-- ask What value of measured Papp A→B is listed for c1ccc(CN2CCC[C@H](Oc3ccc4cnccc4c3)C2)cc1 ?
-- reply 11.6

----------
- EXPERIMENTAL_PROTOCOL: Plasma clearance in C57 mouse
- Type: ADME, organism-based
REPORTED_ENDPOINT: clearance (mL/min/kg)
Answer format: numeric, mL/min/kg implied, no suffix.

-- ask What value of measured clearance is listed for Nc1nccc2c(S(=O)(=O)N3CCCNCC3)cccc12 ?
-- reply 34

----------
- EXPERIMENTAL_PROTOCOL: Volume of distribution at steady state in C57 mouse
- Format: ADME, organism-based
- TEST_CONTEXT: in vivo, read-out: Vdss
REPORTED_ENDPOINT: Vd (L/kg)
Answer format: numeric, L/kg implied, no suffix.

-- ask What value of measured Vd is listed for Nc1nccc2c(S(=O)(=O)N3CCCNCC3)cccc12 ?
-- reply 2.4

----------
- EXPERIMENTAL_PROTOCOL: Apparent permeability from basolateral to apical side of human Caco2 cells
- Type: ADME, cell-based
- TEST_CONTEXT: Caco-2, read-out: permeability
REPORTED_ENDPOINT: Papp B→A

-- ask What value of measured Papp B→A is listed for c1ccc(CN2CCC[C@H](Oc3ccc4cnccc4c3)C2)cc1 ?
-- reply 17.6 ×10⁻⁶ cm/s

// below: Papp B→A requested for another compound
-- ask What value of measured Papp B→A is listed for O=c1[nH]ccc2cc(O[C@H]3CCCNC3)ccc12 ?
-- reply 11.2 ×10⁻⁶ cm/s
